Known GI50 of a selection of compounds
- Test system: LNCaP
- procedure.details: Inhibition of cells growth by colorimetric (SRB) assay, LNCaP
- conditions: read-out: GI50 LN-caP; SRB assay, 48 hours exposure
Please state the figure in nM; there is no need to write the unit.

Examples from the recorded data:
COc1nccc(-c2c3cccnc3n3c(N)nccc23)n1 | 72.9
CCOc1nccc(-c2c3cccnc3n3c(N)nccc23)n1.Cl | 887
Cc1ccc2c(-c3ccnc(N)n3)c3ccnc(N)n3c2n1 | 174
Nc1nccc2c(-c3ccncn3)c3c(O)ccnc3n12 | 1050
Cc1ccc2c(-c3ccnc(N)n3)c3ccnc(N)n3c2n1.Cl | 351

Ask | GET /values?readout=GI50&item= COc1nccc(-c2c3cccnc3n3c(N)nccc23)n1.Cl
Reply | 158

Ask | GET /values?readout=GI50&item= COc1ccnc2c1c(-c1ccnc(N)n1)c1ccnc(N)n12.Cl
Reply | 602

Ask | GET /values?readout=GI50&item= Nc1nccc(-c2c3cc4ccccc4nc3n3c(N)nccc23)n1 [Compound 19a]
Reply | 736

Ask | GET /values?readout=GI50&item= Cl.Nc1nccc2c(-c3ccncn3)c3c(O)ccnc3n12
Reply | 22.4
